From: paper PMC10693628

For each entry below, report its Kd value.
Target: T1, Sumo-SiwR (Mycobacterium smegmatis, UniProt A0QS56 1-320)
T1 sequence: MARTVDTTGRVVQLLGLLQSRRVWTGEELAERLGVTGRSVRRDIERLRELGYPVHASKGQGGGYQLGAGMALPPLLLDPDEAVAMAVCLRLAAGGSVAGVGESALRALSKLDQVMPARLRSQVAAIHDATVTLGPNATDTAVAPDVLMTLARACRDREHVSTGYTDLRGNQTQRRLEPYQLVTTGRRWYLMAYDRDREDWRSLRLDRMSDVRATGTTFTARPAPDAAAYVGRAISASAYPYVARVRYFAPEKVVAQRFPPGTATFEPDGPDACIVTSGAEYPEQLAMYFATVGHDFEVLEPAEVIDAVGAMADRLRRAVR
Test: fluorescence anisotropy; EMSA: 5 mM HEPES-KOH pH 7.0, 30 mM NaCl, 2.5% Ficoll 400K, 1% glycerol, 5 nM probe (10 nM in Fig. 2a legend), 37 °C 15 min; anisotropy: 5 mM HEPES-KOH pH 7, 30
Settings: protein: recombinant; tags: His6-TEV-Sumo N-terminal fusion; chain copies: 2; label: 5'-FAM
Numbers only, in nM.

{"binder": "CGTCAGTCCAGT (ssDNA, 8-oxoguanine at position 6) [12-nt ssDNA 8-oxoG]", "observed_result": 227}

### Prompt Answer with reported Kd of CGTCAGTCCAGT (ssDNA) [12-nt ssDNA]
### Response 178
